What activation was measured for each of the following?
- Test system: DAF-12 nuclear receptor (Heterodera glycines), GAL4-LBD fusion
- assayExplanation: H. glycines DAF-12 receptor agonists, confirmation, cell-based, luminescence, HEK293, GAL4-LBD fusion (AID 743050);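 note: 0% = DMSO low control and 100% = 2 mM sodium butyrate high control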
- testConditions: HEK293 GAL4-hgDAF12 luciferase reporter, agonist mode; at 6.8 µM; stronger effect = higher value; percent of butyrate response
The other results are listed elsewhere or left out.
Enter your answer as a number in %; do not include the unit.

Quick check: activation on DAF-12 nuclear receptor (Heterodera glycines), GAL4-LBD fusion, item `CCOc1ccc(OCc2cccc(C(=O)N(CC)CC)c2)cc1` ?
19.5

Quick check: activation on DAF-12 nuclear receptor (Heterodera glycines), GAL4-LBD fusion, item `Cc1ccn(-c2cccc(-n3ccc(C)n3)n2)n1` ?
15.2

Quick check: activation on DAF-12 nuclear receptor (Heterodera glycines), GAL4-LBD fusion, item `Cc1nn(-c2ccc([N+](=O)[O-])cc2)c(N)c1-c1ccccc1` ?
16.4

Quick check: activation on DAF-12 nuclear receptor (Heterodera glycines), GAL4-LBD fusion, item `Cc1ccc2nc(-c3ccc(SCC(=O)Nc4cc(C)on4)nc3)[nH]c2c1` ?
15.6

Quick check: activation on DAF-12 nuclear receptor (Heterodera glycines), GAL4-LBD fusion, item `O=C(Nc1ncccc1O)c1ccc(S(=O)(=O)N2CCCC2)cc1` ?
14.2

Quick check: activation on DAF-12 nuclear receptor (Heterodera glycines), GAL4-LBD fusion, item `NC(=O)c1ccccc1N=Cc1ccc2ccccc2c1` ?
15.7

* * *

- assayExplanation: StAR promoter reporter inhibitors, counter-screen for LRH-1 inverse agonist project, cell-based, luminescence, high throughput (AID 651611)
- testConditions: StAR promoter luciferase reporter counterscreen, at 3.6 µM, stronger effect = higher value
What inhibition was measured for each of the following?
Enter your answer as a number in %; do not include the unit.

inhibition for `C/C(=N\Nc1nc(C)c(C)s1)c1ccc([N+](=O)[O-])cc1` ?
-12.6

inhibition for `COc1ccccc1Cc1c(-c2ccc(OC)c(OC)c2)nc2c3ccccc3ccn12` ?
8.86

inhibition for CC1SC(C)C(=O)N(CC(=O)Nc2ccc3c(c2)OCO3)C1=O (centres undefined) ?
8.81

inhibition for `NC(=Nc1nc(-c2ccccn2)cc2ccccc12)c1ccccn1` ?
91.8

inhibition for `COc1cc(OC)cc(C(=O)N[C@H](C(=O)OCC(=O)Nc2ccc3c(c2)OCO3)C(C)C)c1` ?
14.4

inhibition for COc1cccc2c1C(=O)c1c(O)c3c(c(O)c1C2=O)CC(O)(C(C)=NNC(=O)c1ccc(Cl)c(Cl)c1)CC3OC1CC(N)C(O)C(C)O1 (centres undefined) ?
72.7

inhibition for `COc1ccc(CCNC(=O)c2nnn(-c3ccc4c(c3)OCCO4)c2N)cc1OC` ?
44.7

inhibition for CC12CCC(=O)N1c1c(sc3nc(N4CCOCC4)c4c(c13)CCCC4)C(=O)N2 (centres undefined) ?
11.1

inhibition for `Nc1ccc(S(=O)(=O)NNC(=O)C(=O)NNc2ccccc2)cc1` ?
5.29

* * *

- testSystem: Nuclear receptor coactivator 3 (Homo sapiens) (UniProt Q9Y6Q9)
- Sequence (Q9Y6Q9 whole entry, looked up): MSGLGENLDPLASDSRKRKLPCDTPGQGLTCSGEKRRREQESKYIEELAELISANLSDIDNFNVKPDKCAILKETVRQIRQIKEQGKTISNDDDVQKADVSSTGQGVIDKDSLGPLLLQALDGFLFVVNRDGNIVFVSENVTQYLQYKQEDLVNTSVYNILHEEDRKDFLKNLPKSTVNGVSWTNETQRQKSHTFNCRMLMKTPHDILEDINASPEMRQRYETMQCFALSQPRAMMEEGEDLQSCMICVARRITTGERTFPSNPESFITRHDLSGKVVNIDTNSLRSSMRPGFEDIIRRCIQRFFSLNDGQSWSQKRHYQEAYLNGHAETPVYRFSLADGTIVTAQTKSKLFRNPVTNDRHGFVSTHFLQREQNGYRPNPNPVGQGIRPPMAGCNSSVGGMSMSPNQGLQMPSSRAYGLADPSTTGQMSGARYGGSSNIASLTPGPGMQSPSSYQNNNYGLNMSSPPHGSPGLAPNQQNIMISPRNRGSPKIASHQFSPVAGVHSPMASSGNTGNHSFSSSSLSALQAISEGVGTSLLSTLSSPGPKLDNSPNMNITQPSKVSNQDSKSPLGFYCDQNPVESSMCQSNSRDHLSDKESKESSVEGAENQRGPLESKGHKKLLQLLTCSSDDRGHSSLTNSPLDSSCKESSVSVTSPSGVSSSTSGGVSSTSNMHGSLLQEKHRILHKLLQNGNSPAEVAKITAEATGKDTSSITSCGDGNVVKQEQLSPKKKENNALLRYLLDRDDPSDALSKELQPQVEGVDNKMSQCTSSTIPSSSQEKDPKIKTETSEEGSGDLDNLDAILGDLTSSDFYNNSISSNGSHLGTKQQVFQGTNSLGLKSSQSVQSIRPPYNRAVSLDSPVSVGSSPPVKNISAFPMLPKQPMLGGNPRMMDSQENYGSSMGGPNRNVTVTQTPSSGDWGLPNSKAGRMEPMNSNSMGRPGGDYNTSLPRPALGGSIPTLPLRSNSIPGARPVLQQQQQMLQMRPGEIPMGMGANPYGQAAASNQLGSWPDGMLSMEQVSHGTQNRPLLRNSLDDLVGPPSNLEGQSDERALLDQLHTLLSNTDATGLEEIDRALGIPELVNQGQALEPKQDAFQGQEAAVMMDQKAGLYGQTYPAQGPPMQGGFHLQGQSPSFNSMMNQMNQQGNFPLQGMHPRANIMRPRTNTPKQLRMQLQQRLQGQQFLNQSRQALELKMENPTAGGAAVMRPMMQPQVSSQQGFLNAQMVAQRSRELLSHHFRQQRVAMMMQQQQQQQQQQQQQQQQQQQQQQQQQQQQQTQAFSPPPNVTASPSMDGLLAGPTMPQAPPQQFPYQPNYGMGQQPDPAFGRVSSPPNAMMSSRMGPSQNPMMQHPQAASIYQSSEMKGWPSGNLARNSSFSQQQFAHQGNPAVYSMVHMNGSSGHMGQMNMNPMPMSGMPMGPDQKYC
- assayExplanation: SRC3 coactivator transcriptional activity inhibitors, confirmation, cell-based, luminescence, quadruplicate (AID 588792);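 note: 0% = DMSO treated cells and 100% = gossypol at 36 µM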
- testConditions: HEK293 GAL4-SRC3 luciferase reporter, at 3.6 µM, stronger effect = higher value
Would you please tag the item satisfied when its inhibition is 50% or above, and not satisfied when it is below?

Textbook exercise: given the entry `CN1c2ccc(C=O)c3c(C=O)ccc(c23)N(C)C1(C)C` , state whether its inhibition is greater than or equal to 50%.
not satisfied

Textbook exercise: given the entry `CCOC(=O)c1c(NC(=O)COc2cccc3c2CCN(C)C3=O)sc2c1CCC2` , state whether its inhibition is greater than or equal to 50%.
not satisfied

Textbook exercise: given the entry COc1cccc(/C=N/NC(=O)C(C)n2nc(C)c([N+](=O)[O-])c2C)c1O (centres undefined) , state whether its inhibition is greater than or equal to 50%.
not satisfied

Textbook exercise: given the entry `Cc1ccc(/C=C2/SC(=S)N(CCCC(=O)Nc3ccc(O)cc3)C2=O)cc1` , state whether its inhibition is greater than or equal to 50%.
satisfied

Textbook exercise: given the entry `O=[N+]([O-])c1cc(CN2CCN(c3ccccc3)CC2)c(O)c2ncccc12` , state whether its inhibition is greater than or equal to 50%.
not satisfied

Textbook exercise: given the entry COc1ccc2[nH]c3c(c2c1)CC(C)NC3=O (centres undefined) , state whether its inhibition is greater than or equal to 50%.
satisfied

Textbook exercise: given the entry `CCc1ccc2nc3nc(C)cc(C)c3c(N)c2c1` , state whether its inhibition is greater than or equal to 50%.
not satisfied

Textbook exercise: given the entry CC1=C(C(=O)OCc2ccc3c(c2)OCO3)C(c2ccc(O)c([N+](=O)[O-])c2)NC(=O)N1 (centres undefined) , state whether its inhibition is greater than or equal to 50%.
satisfied

Textbook exercise: given the entry `CC[n+]1cc(C)ccc1/C=C/c1ccc(N(C)C)cc1` , state whether its inhibition is greater than or equal to 50%.
not satisfied

Textbook exercise: given the entry `COc1ccc(CN(Cc2cccn2C)S(=O)(=O)c2ccc(C)cc2)cc1` , state whether its inhibition is greater than or equal to 50%.
not satisfied

Textbook exercise: given the entry `COc1ccc2cc3c(N)nn(C(=O)c4ccc(Cl)c([N+](=O)[O-])c4)c3nc2c1` , state whether its inhibition is greater than or equal to 50%.
satisfied

Textbook exercise: given the entry CCc1ccc(-c2nc(CS(=O)CC(=O)NCc3ccco3)c(C)o2)cc1 (centres undefined) , state whether its inhibition is greater than or equal to 50%.
not satisfied

Textbook exercise: given the entry `CC(C)(C)C(=O)NC(=S)NNC(=O)c1sc2ccccc2c1Cl` , state whether its inhibition is greater than or equal to 50%.
not satisfied

Textbook exercise: given the entry `COc1cc2ccccc2ccc1=NO` , state whether its inhibition is greater than or equal to 50%.
satisfied

* * *

- testSystem: Protein phosphatase methylesterase 1 (Homo sapiens) (UniProt Q9Y570)
- Sequence (Q9Y570 whole entry, looked up): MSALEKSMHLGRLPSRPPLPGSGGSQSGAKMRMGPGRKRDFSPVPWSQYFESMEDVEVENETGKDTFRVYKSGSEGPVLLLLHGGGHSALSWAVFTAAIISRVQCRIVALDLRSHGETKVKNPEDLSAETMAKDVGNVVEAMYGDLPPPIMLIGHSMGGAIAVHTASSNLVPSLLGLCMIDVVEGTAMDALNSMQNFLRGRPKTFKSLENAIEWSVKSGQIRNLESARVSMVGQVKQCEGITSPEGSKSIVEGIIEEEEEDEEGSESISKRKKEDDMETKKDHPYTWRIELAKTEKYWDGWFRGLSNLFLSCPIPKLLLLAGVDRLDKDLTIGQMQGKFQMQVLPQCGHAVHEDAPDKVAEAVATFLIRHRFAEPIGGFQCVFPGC
- assayExplanation: PME-1 inhibitor activity retest, confirmation, biochemical, fluorescence polarization, FP-Rh probe, triplicate (AID 2171);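 note: 0% = enzyme with DMSO and 100% = wells lacking PME-1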
- testConditions: recombinant PME-1, FP-Rh probe fluorescence polarization; at 5.9 µM; stronger effect = higher value
What inhibition was measured for each of the following?
Enter your answer as a number in %; do not include the unit.

inhibition for `Cc1cc(C)c2[nH]c(O)c(N=NC(=O)c3cc4c(s3)CCCC4)c2c1` ?
31.9

inhibition for `COc1ccc2oc(C(=O)OCC(=O)N3CCN(S(=O)(=O)c4ccc(C)cc4)CC3)c(C)c2c1` ?
17.9

inhibition for `COc1ccc(N/N=C(\C=N\O)C(=O)c2ccc(OC)cc2)cc1` ?
58.9

inhibition for `Cc1ccccc1OCC(=O)NC(=S)Nc1cccc2cc(O)ccc12` ?
20.7

inhibition for `C(=N\Nc1nc2ccccc2[nH]1)/c1cccc2cccnc12` ?
60.2

inhibition for `C=CCOc1ccc(/C=N/NC(=O)c2cc3c(OC)cc(OC)cc3[nH]2)cc1` ?
24.4

* * *

- assayExplanation: VP16 transactivation inhibitors, counter-screen for SRC1 inhibitor project, cell-based, luminescence, high throughput (AID 588824)
- testConditions: cell-based VP16 transactivation luciferase luminescence; at 3.6 µM; stronger effect = higher value
Calls of active or inactive are those of the source. Rule as the data show it: active = inhibition above about 25%; inactive = the rest.
readoutLabel: inhibition

inhibition for `CN(C)c1ccncc1C(=O)Nc1ccc(F)cc1F` ?
-9.03% (inactive)

inhibition for `COc1ccc(-c2nsc3c(N4CCCCC4)ncnc23)cc1` ?
-6.65% (inactive)

inhibition for `O=C(COC(=O)CCC(=O)c1ccccc1)Nc1nnc(-c2ccccc2)o1` ?
-8.55% (inactive)

inhibition for `Cc1cc(C)c(OCCN2CCCC2)c(Cl)c1` ?
2.73% (inactive)

inhibition for `CN(C)c1ccc(/C=C/c2ccc3ccccc3[n+]2C)cc1` ?
74.3% (active)

inhibition for `CC(C)c1ccc(-n2c(-c3ccccc3)c[n+]3c2CCc2ccccc2-3)cc1` ?
84.4% (active)

inhibition for `Cc1nc2sc(C(N)=O)c(N)c2c(C)c1CC(=O)c1ccccc1` ?
5.05% (inactive)

* * *

- Test system: transactivating tegument protein VP16 (Human herpesvirus 1), Gal4-VP16 luciferase reporter
- assayExplanation: VP16 transactivation inhibitors, counter-screen for SRC3 inhibitor project, cell-based, luminescence, high throughput (AID 588794)
- testConditions: mammalian cells, VP16-driven luciferase reporter luminescence; at 3.6 µM
Calls of active or inactive are those of the source. Cut-off read from the data, not from the text of the source: active = inhibition above about 30%; inactive = the rest.
# output must be one of active, inactive

Please let me know the test result on file for `Brc1ccc2ncc3ccccc3c2c1` .
inactive

Please let me know the test result on file for `COc1ccc(-c2cc3nc(C)n(N)c(=O)c3s2)cc1` .
active

Please let me know the test result on file for `COc1cccc(/C=N/Nc2ncnc(Cl)c2N)c1O` .
active

Please let me know the test result on file for `C[C@@H](C(=O)Nc1ccc2c(c1)OCCO2)n1c(=O)[nH]c2ccccc2c1=O` .
inactive

Please let me know the test result on file for `O=C(CC(O)(C(F)(F)F)C(F)(F)F)Nc1ccc(Cl)c(Cl)c1` .
active

Please let me know the test result on file for `Brc1ccc(N/N=C(/N=Nc2nn[nH]n2)c2ccccc2)cc1` .
active

Please let me know the test result on file for CCCc1[nH]nc2c1C(c1ccc(Br)s1)C(C#N)=C(N)O2 (centres undefined) .
inactive

Please let me know the test result on file for `O=C(NC(Nc1nc2ccc([N+](=O)[O-])cc2s1)(C(F)(F)F)C(F)(F)F)c1ccccc1Cl` .
active

Please let me know the test result on file for `O=c1cccc2c1c1cc[nH]c3ccc(=O)n2c31` .
active
